ASSAY_DETAILS: Mouse PK test: plasma concentration after intravenous or oral administration
Format: in vivo, mice (C57BL/6J)
CONDITION_PARAMETERS: male, C57BL/6J, in vivo, po
Starred links: 1 amine or outer side, 2 acyl side, 3 side chain; linkers in the order of their positions; H or OH if unused. Non-standard residues stand in square brackets, D forms with d. Residues, ends and D or L forms follow the SMILES beside them. *: point of attachment. NMedβ3hAla = C[C@H](CC(=O)[*:2])N(C)[*:1]; NMeF = CN[C@@H](Cc1ccccc1)C(=O)O; NMeI = CC[C@H](C)[C@H](NC)C(=O)O; NMeβAla = CN(CCC(=O)[*:2])[*:1]; NMeL = CN[C@@H](CC(C)C)C(=O)O; Sar = CNCC(=O)O; tBu = CC(C)(C)*
MEASUREMENT_NAME: bioavailability

1) CC[C@H](C)[C@H]1C(=O)N[C@@H](CC(C)C)C(=O)N(C)CC(=O)N(C)[C@@H](CC(C)C)C(=O)N[C@@H](CC(C)C)C(=O)N(C)[C@H](C)CC(=O)N(C)[C@@H](CC(C)C)C(=O)N(C)CCC(=O)N(C)[C@@H](CC(C)C)C(=O)N[C@@H](COC(C)(C)C)C(=O)N(C)[C@@H](Cc2ccccc2)C(=O)N(C)CCC(=O)N(C)[C@@H](Cc2ccccc2)C(=O)N1C [pd144] (cyclo(L[Sar][NMeL]L[NMedβ3hAla][NMeL][NMeβAla][NMeL]S(tBu)[NMeF][NMeβAla][NMeF][NMeI])) | 40%

Source of measurements: patent EP4768499A1
